- System: SK-MEL-2 melanoma
- Assay explanation: NCI-60 one-dose screen, 48 h (100 = growth as untreated, 0 = no growth, -100 = all killed)
- Condition set: 10 µM unless noted
The panel holds about 83,000 compounds, 20% with a hit somewhere; the sample as a whole holds those more often.
Measured endpoint: growth (%)
Provide only the numeric value, understood in %.

The recorded growth for O=C(NCCCNC(=O)OCc1ccc2c(Br)cc(Br)c(O)c2n1)OCc1ccc2c(Br)cc(Br)c(O)c2n1 is -6.76

The recorded growth for CC1(C)S[C@@H]2[C@H](NC(=O)[C@H](C(=O)O)c3cccs3)C(=O)N2[C@H]1C(=O)O is 98.2

The recorded growth for NC(=O)c1c(NC(=O)COC(=O)Cc2ccccc2F)sc2c1CCC2 is 99.9

The recorded growth for CCOC(=O)COc1c(C)cc(SSc2cc(C)c(OCC(=O)OCC)c(C)c2)cc1C is 100

The recorded growth for C[n+]1cccc(NC(=O)c2ccc3ccc4ccc(C(=O)Nc5ccc[n+](C)c5)nc4c3n2)c1 is 56.9
